Numbers sourced from paper PMC9090415.

# study-target: bacteriophage T4 DNA polymerase (Enterobacteria phage T4)
# Construct: made in house
# procedure-summary: Counter-screen against bacteriophage T4 DNA polymerase
# Type: biochemical
# test-parameters: DRC-2; 90'; concentration 5
Can you tell me % inhibition T4 90' for the items I'm about to list?
Give bare numbers, in %.

// solved cases for % inhibition T4 90' follow
CC(C)(C)OC(=O)COc1ccc2cc(-c3ccccc3)c(=O)oc2c1; 13
COc1ccc(C(=O)N2CCc3c(nc4cc(-c5ccccc5Cl)[nH]n4c3=O)C2)cn1; -10
CCC(C)NC(=O)c1cc(NC(C)=O)cc2nc(C)ccc12 (stereo not drawn); 13
O=C(NC(C(Cl)Cl)S(=O)(=O)c1ccccc1)c1ccccc1 (stereo not drawn); -17
O=C1N=C(Nc2cccc(Cl)c2Cl)S/C1=C\c1ccco1 [Molecule 3, O=C1N=C(S/C/1=C\c1ccco1)Nc1cccc(c1Cl)Cl]; 27

Okay, now this molecule:
Enquiry: Which measured % inhibition T4 90' value corresponds to Cc1ccc(C(=O)/C=C/C=C/C=C/N(C)C)o1 ?
Return: 11

====

Could you please report measured % inhibition T4 10' 80 for the items listed next?
# study-target: bacteriophage T4 DNA polymerase (Enterobacteria phage T4)
# Construct: made in house
# procedure-summary: Counter-screen against bacteriophage T4 DNA polymerase
# Type: biochemical
# test-parameters: DRC-1; read at 10'; concentration 80
Output should be the measured figure followed by the unit it is expressed in.

Some solved cases for reference:
CC(C)CC(C(=O)O)N1C(=O)C2C3C=CC(C2C1=O)C1C(=O)N(C(CC(C)C)C(=O)O)C(=O)C31 (centres unmarked) [KU0193449]; 52.1619%
Cc1cccc(-c2noc(C(=O)NNC(=O)C(Cl)(Cl)Cl)n2)c1 [KU0266208]; 7.879%

Hello, I would appreciate it if you could give % inhibition T4 10' 80 for each entry below.
1. Cc1ccsc1Cn1c(C)ccc1C [Molecule 70, Cc1ccsc1Cn1c(C)ccc1C]
2. Cn1nc(-c2nc(-c3ccccc3)no2)c2c1CCN(C(=O)Cc1cccs1)C2 [Molecule 58]
3. Cc1nc(C)c2c(n1)N(CC1CCCCC1)C(=O)CC2 [KU0218606]
4. Cc1ccc(N2CCC(NC(=O)Cc3cccs3)C2=O)cc1C (centres unmarked) [Molecule 57, O=C(NC1CCN(C1=O)c1ccc(c(c1)C)C)Cc1cccs1]
5. CCCc1ccc(Oc2coc3cc(OC)ccc3c2=O)cc1 [KU0193249]
6. O=C(c1ccccc1)N1CCc2c(nc3cc(-c4ccccc4)[nH]n3c2=O)C1 [Molecule 30]
7. O=C1CSC2=NC3=C(CCc4ccccc43)C(c3cccs3)N12 (centres unmarked) [Molecule 59, O=C1CSC2=NC3=C(C(N12)c1cccs1)CCc1c3cccc1]

Return:
["-6.46%", "33%", "-2.366%", "29.7097%", "-14.455%", "-0.6394%", "22.8817%"]

====

# study-target: bacteriophage T4 DNA polymerase (Enterobacteria phage T4, UniProt P04415)
# Construct: made in house
# Sequence (P04415 whole entry): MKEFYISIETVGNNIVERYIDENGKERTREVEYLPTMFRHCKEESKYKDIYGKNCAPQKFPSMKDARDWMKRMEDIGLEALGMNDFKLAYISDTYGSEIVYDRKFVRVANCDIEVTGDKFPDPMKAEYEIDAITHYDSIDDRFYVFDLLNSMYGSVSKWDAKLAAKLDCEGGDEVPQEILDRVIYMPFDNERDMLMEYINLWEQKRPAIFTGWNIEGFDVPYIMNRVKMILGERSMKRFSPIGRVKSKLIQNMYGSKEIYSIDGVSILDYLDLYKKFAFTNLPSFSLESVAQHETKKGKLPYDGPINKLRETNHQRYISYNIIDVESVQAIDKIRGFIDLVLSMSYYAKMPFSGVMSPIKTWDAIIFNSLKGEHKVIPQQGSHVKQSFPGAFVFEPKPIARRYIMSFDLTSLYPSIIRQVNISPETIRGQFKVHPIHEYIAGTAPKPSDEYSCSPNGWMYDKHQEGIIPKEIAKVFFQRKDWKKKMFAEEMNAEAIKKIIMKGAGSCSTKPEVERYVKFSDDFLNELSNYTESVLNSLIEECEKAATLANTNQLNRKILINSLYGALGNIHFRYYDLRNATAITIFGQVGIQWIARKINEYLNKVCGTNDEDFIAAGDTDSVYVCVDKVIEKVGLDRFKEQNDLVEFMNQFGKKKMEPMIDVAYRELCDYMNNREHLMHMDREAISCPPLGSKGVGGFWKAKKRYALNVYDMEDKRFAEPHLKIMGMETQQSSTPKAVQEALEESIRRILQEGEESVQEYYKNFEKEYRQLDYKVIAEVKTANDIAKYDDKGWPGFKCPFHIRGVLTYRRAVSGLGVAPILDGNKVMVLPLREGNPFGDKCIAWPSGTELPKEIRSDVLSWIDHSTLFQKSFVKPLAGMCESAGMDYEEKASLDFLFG
# procedure-summary: Counter-screen against bacteriophage T4 DNA polymerase
# Format: biochemical
# test-parameters: DRC-2; 40'; concentration 10
Would you kindly list % inhibition T4 40' for each of these compounds?
One number for each entry, in %.

These recorded examples may help you get a feel for the data.
CCCCC(=O)N1CCc2c(nc3cc(-c4ccccc4Cl)[nH]n3c2=O)C1; 3.42
Cc1ccccc1C(=O)N1CCc2c(nc3cc(-c4ccccc4)[nH]n3c2=O)C1; 5
Cc1ccc(C)n1-c1ccc(C(=O)NNC(=O)c2ccc3nccnc3c2)cc1; 29
CC1(C)CC(=O)C2=C(C1)OC1=C(C(=O)CC(C)(C)C1)C2c1ccc(O)cc1; 18
COc1cccc(Oc2c(C(F)(F)F)oc3cc(OC(=O)N(C)C)ccc3c2=O)c1; 7
N#CC(=NNc1cc(C(F)(F)F)cc(C(F)(F)F)c1)C(=O)c1ccco1; 13
O=C(NC(C(Cl)Cl)S(=O)(=O)c1ccccc1)c1ccccc1 (stereo not drawn); -19
CC(C)(C)OC(=O)COc1ccc2cc(-c3ccccc3)c(=O)oc2c1; 10

Enquiry: Would you mind telling me what % inhibition T4 40' value was observed for COc1ccc(CNC(=O)Cn2nc3c(c2NC(=O)Cc2cccs2)CSC3)cc1 ?
Return: 26

====

Kindly state % inhibition Apol 90' for each of the entries shown.
# study-target: P. falciparum apicoplast DNA polymerase (Pf-apPOL) (Plasmodium falciparum, UniProt Q8ILY1)
# Sequence (Q8ILY1 entry or part of it): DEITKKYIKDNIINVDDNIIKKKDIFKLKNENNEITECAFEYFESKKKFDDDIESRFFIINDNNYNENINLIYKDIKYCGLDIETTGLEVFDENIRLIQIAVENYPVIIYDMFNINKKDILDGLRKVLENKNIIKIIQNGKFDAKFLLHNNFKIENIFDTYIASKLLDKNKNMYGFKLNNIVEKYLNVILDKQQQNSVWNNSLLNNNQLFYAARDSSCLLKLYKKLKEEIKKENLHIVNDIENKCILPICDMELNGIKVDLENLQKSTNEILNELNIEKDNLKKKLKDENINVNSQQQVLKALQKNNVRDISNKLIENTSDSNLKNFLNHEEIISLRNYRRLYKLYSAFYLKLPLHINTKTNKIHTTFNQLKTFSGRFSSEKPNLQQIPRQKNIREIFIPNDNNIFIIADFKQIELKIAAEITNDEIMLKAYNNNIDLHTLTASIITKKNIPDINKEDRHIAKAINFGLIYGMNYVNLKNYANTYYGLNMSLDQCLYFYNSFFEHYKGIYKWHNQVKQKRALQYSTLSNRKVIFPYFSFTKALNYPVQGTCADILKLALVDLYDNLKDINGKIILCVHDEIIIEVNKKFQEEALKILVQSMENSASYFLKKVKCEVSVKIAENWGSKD
# procedure-summary: Fluorescence-based high-throughput DNA polymerase assay (molecular beacon), primary screen and dose-response
# Assay type: biochemical
# test-parameters: DRC-1; concentration 20; 90'
# include the unit after the value

COc1ccc(-c2occ(C(=O)O)c2C(=O)O)cc1; 63.2397%
Cc1cc(C)nc(Nc2nc(CC(=O)Nc3nc(-c4ccco4)cs3)cs2)n1; 69.8736%
COc1ccc(C=C2Oc3c(ccc4c3CN(Cc3ccco3)CO4)C2=O)c(OC)c1; 50.8732%
O=[N+]([O-])c1ccc(SCc2ccco2)c2cccnc12; 49.2841%
O=C(Nc1c2c(nn1-c1ccccc1)CSC2)c1ccco1; 64.6698%
Cc1ccc(C2=N/C(=C\c3ccc(I)o3)C(=O)O2)cc1[N+](=O)[O-]; 60.0756%
CCOc1ccc2cc(C3=NN(C(=O)CCC(=O)O)C(c4ccc(C)cc4)C3)c(=O)[nH]c2c1 (centres unmarked); 18.8847%
O=C(O)c1nc(-c2ccccc2)nc2c1OCO2; 46.4112%
O=C1c2ccccc2C(=O)c2c1oc1c3c(ccc21)OCN(C1CCCC1)C3; 72.2655%
CCCCCc1c2c(cc(O)c1C(=O)O)OC(=O)c1c(cc(OC)cc1C(=O)CCCC)O2; 81.3702%

// below: % inhibition Apol 90' requested for another compound
Enquiry: % inhibition Apol 90' lookup needed for COc1ccc(NC(=O)Cn2nc3c(cc2=O)CCC3)cc1Cl , thanks.
Return: 90%

====

# study-target: P. falciparum apicoplast DNA polymerase (Pf-apPOL) (Plasmodium falciparum)
# procedure-summary: Fluorescence-based high-throughput DNA polymerase assay (molecular beacon), primary screen and dose-response
# Type: biochemical
# test-parameters: DRC-1; 10'; concentration 20
Classify as follows. Reported % inhibition Apo pol 10' greater than or equal to 40%: T. Reported % inhibition Apo pol 10' below: F.

Would you please look over these solved cases?
CC(C)(C)OC(=O)COc1ccc2cc(-c3ccccc3)c(=O)oc2c1; F
COc1cc(Cl)c(C)cc1NC(=O)Cn1ccc2c(=O)[nH]ccc21; T
O=C1CCCC2=C1C(c1ccccn1)C1=C(CCCC1=O)O2; T
O=C1c2ccccc2C(=O)N1Oc1ccc([N+](=O)[O-])c([N+](=O)[O-])c1; F
Cc1cccc(CC(=O)N2CCc3c(nc4cc(-c5ccccc5)[nH]n4c3=O)C2)c1; T

Enquiry: Does the reported % inhibition Apo pol 10' for Oc1cccc2ccc(/C=C/c3ccc4c(c3)OCO4)nc12 fall at or above the 40% mark?
Return: T

Enquiry: Try this molecule too: CN(C)C=CC(=O)c1ccccn1
Return: T

Enquiry: And then CCOC(=O)C(NCc1ccco1)(NC(=O)c1ccco1)C(F)(F)F (centres unmarked) , what is it?
Return: F

====

Kindly supply the reported % inhibition Apol 90' 80 values for the records listed here.
# study-target: P. falciparum apicoplast DNA polymerase (Pf-apPOL) (Plasmodium falciparum, UniProt Q8ILY1)
# procedure-summary: Fluorescence-based high-throughput DNA polymerase assay (molecular beacon), primary screen and dose-response
# Format: biochemical
# test-parameters: DRC-1; read at 90'; concentration 80
One number for each entry, in %.

Some solved entries appear below for comparison.
CC(C)CC(C(=O)O)N1C(=O)C2C3C=CC(C2C1=O)C1C(=O)N(C(CC(C)C)C(=O)O)C(=O)C31 (stereo not drawn); 61.6554
Cc1cc2[nH]c(C(=O)Nc3ccc(F)cc3)c(CN3CCOCC3)c2s1; 73.0205
Nc1cc(Oc2ccc(O)c(N)c2)ccc1O; 68.9049
O=C1CSC2=NC3=C(CCc4ccccc43)C(c3cccs3)N12 (stereo not drawn); 67.4831
Cc1ccsc1Cn1c(C)ccc1C; 69.1434
COc1ccc(C2CC(c3ccc(Cl)cc3Cl)Nc3nc(N)nn32)cc1OC (stereo not drawn); 67

I'm hoping you can list % inhibition Apol 90' 80 for every compound here, please.
1. COc1ccccc1CC(=O)N1CCc2c(nc3cc(-c4ccccc4Cl)[nH]n3c2=O)C1
2. CCCc1ccc(Oc2coc3cc(OC)ccc3c2=O)cc1

Return:
1. 71
2. 54.3218

Enquiry: Hello, I am looking for reported % inhibition Apol 90' 80 with P. falciparum apicoplast DNA polymerase (Pf-apPOL) (Plasmodium falciparum, UniProt Q8ILY1) for C#CC(C=CC)OC(=O)c1ccccc1C(=O)O (stereo not drawn) . Could you help?
Return: 70.5531

====

# study-target: bacteriophage T4 DNA polymerase (Enterobacteria phage T4, UniProt P04415)
# Construct: made in house
# procedure-summary: Counter-screen against bacteriophage T4 DNA polymerase
# Format: biochemical
# test-parameters: DRC-2; read at 180'; concentration 80
quantity-name: % inhibition T4 180' 80 (%)
Numbers only, in %.

Past entries and their recorded results:
Cc1ccsc1Cn1c(C)ccc1C; 1.21
Nc1cc(Oc2ccc(O)c(N)c2)ccc1O; -14
CC(C)CC(C(=O)O)N1C(=O)C2C3C=CC(C2C1=O)C1C(=O)N(C(CC(C)C)C(=O)O)C(=O)C31 (centres unmarked); 45
N#Cc1c(O)nc(N2CCCCC2)nc1-c1ccc2c(c1)OCO2; 2.15
Cc1cccc(-c2noc(C(=O)NNC(=O)C(Cl)(Cl)Cl)n2)c1; 0.715

Parameters: items (list). Returns: % inhibition T4 180' 80 for each item.
1. O=C(c1ccccc1)N1CCc2c(nc3cc(-c4ccccc4)[nH]n3c2=O)C1
2. Cc1ccc(N2CCC(NC(=O)Cc3cccs3)C2=O)cc1C (centres unmarked)
3. Cn1nc(-c2nnc(-c3ccccc3F)o2)c2c1CCN(C(=O)c1ccccc1Cl)C2
4. COc1ccc(C2CC(c3ccc(Cl)cc3Cl)Nc3nc(N)nn32)cc1OC (centres unmarked)
5. CC(=O)Nc1cc(C(=O)c2cccs2)nn(-c2ccc(Cl)cc2)c1=O

Return:
1: -21; 2: 37; 3: 6; 4: -2.58; 5: -3.56

For each entry beneath this line, provide reported % inhibition T4 180' 80.
1. CC(=O)OCC1=C(C(=O)[O-])N2C(=O)[C@@H](NC(=O)Cc3cccs3)[C@H]2SC1.[Na+]
2. O=C(CCc1csc(NC(=O)Nc2ccccc2)n1)Nc1nc2ccccc2s1
3. C#CC(C=CC)OC(=O)c1ccccc1C(=O)O (centres unmarked)
4. COc1ccc(/C=C/c2cc(C(=O)O)c3ccccc3n2)cc1
5. CCCc1ccc(Oc2coc3cc(OC)ccc3c2=O)cc1

Return:
41
18
-3.3
24
-4

For each entry beneath this line, provide reported % inhibition T4 180' 80.
1. Cc1cc2[nH]c(C(=O)Nc3ccc(F)cc3)c(CN3CCOCC3)c2s1
2. COc1ccccc1CC(=O)N1CCc2c(nc3cc(-c4ccccc4Cl)[nH]n3c2=O)C1
3. Cn1nc(-c2nc(-c3ccccc3)no2)c2c1CCN(C(=O)Cc1cccs1)C2
4. Cc1nc(C)c2c(n1)N(CC1CCCCC1)C(=O)CC2
5. O=C1CSC2=NC3=C(CCc4ccccc43)C(c3cccs3)N12 (centres unmarked)

Return:
[23, -46, 20, 8, 9]
